Assay: oral vs intravenous two-way crossover clinical trial, pharmacokinetics / bioavailability
Assay type: in vivo
Details: human, blood; healthy adults, oral administration (40 mg)
measured endpoint: AUC(0-t)
Report field: quantity (unit follows the number).

[ask] Answer with the recorded AUC(0-t) for the compound listed here: CNCc1cn(S(=O)(=O)c2cccc(F)c2)c(-c2ccc(F)cc2F)c1OC
[reply] 536 ng·h/mL

###

Experiment: single intravenous dose-escalation clinical trial, pharmacokinetics
Type: in vivo
Conditions: human, blood; healthy adults, single intravenous 80 mg
measured endpoint: AUC(0-inf)

[ask] Answer with the recorded AUC(0-inf) for the compound listed here: CNCc1cn(S(=O)(=O)c2cccc(F)c2)c(-c2ccc(F)cc2F)c1OC [Fexuprazan]
[reply] 2380 ng·h/mL

meta.source: patent US20240415808A1
